# maps each entry to its Binding competition
Target: p70 (NAMPT) (Homo sapiens)
Construct: endogenous in cells; host or cells: H2122 lung cancer cells
Sequence (P43490 whole entry): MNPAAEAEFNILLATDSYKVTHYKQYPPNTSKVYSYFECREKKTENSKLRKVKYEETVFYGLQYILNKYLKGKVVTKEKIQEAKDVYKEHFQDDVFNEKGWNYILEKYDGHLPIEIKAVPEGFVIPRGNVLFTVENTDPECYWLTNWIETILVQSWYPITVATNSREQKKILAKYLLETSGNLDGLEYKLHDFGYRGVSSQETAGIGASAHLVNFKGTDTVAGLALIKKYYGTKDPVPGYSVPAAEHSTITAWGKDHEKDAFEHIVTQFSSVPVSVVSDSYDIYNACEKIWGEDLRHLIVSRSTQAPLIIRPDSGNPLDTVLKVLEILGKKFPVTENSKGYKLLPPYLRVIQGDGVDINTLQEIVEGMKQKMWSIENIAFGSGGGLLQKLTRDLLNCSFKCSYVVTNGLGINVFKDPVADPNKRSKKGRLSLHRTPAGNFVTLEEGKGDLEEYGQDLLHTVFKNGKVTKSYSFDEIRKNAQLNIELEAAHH
Assay: binding competition for photo-crosslinking of P7C3-S326 to p70 in H2122 cells
Details: 0.3 μM P7C3-S326 plus 5 μM competitor, p70 band intensity, P7C3-S326 alone compared with plus competitor, vehicle 1.0
Could you keep your reply to the number by itself?

Example results:
# compound, measure, meas-value
data = [
    ("CC(=O)NCCOCC(O)Cn1c2ccc(Br)cc2c2cc(Br)ccc21 (centres unmarked)", "Binding competition", 1.7),
    ("Brc1ccc2c(c1)c1cc(Br)ccc1n2Cc1nnn[nH]1", "Binding competition", 0.9),
    ("O=C(O)c1cc2c3ccccc3n(CC(O)COc3ccccc3)c2cn1 (centres unmarked)", "Binding competition", 1.1),
    ("NC(Cc1c[nH]c2ccc(Br)cc12)C(=O)O (centres unmarked)", "Binding competition", 1.1),
    ("COc1cccc(N(CC(O)Cn2c3ccc(Br)cc3c3cc(Br)ccc32)S(=O)(=O)C(F)(F)F)c1 (centres unmarked)", "Binding competition", 1.1),
    ("COc1cccc(NCC(=O)Cn2c3ccc(Br)cc3c3cc(Br)ccc32)c1", "Binding competition", 2.3),
    ("CCOC(=O)c1ncc2c(n1)c1ccccc1n2S(=O)(=O)c1ccc(C)cc1", "Binding competition", 1.3),
    ("O=C(O)Cn1c2ccc(Br)cc2c2cc(C(=O)O)ncc21", "Binding competition", 0.9),
]

Q: Under p70 (NAMPT) (Homo sapiens): report Binding competition of O=C(COc1cccc(SCC(O)Cn2c3ccc(Br)cc3c3cc(Br)ccc32)c1)NCc1ccccc1 (centres unmarked) .
Result: 1.1

Q: Under p70 (NAMPT) (Homo sapiens): report Binding competition of N#Cc1ccc(N(CC(O)COc2ccccc2)c2ccc(Br)cc2)nc1 (centres unmarked) .
Result: 5.7

Q: Under p70 (NAMPT) (Homo sapiens): report Binding competition of CC(C(N)=O)n1c2ccc(Br)cc2c2cc(Br)ccc21 (centres unmarked) .
Result: 2.9

Q: Under p70 (NAMPT) (Homo sapiens): report Binding competition of CN(C)CCCC1(c2ccc(F)cc2)OCc2cc(C#N)ccc21 (centres unmarked) [S119, Celexa, reference compound] .
Result: 1.2

Q: Under p70 (NAMPT) (Homo sapiens): report Binding competition of O=C1CC2(CCCC2)CC(=O)N1CCCCN1CCN(c2ncccn2)CC1 [S127, Buspar, reference compound] .
Result: 1.2

Q: Under p70 (NAMPT) (Homo sapiens): report Binding competition of Cc1cc(Br)cc2c3cc(Br)cc(C)c3n(CC(O)CNc3ccccc3)c12 (centres unmarked) .
Result: 3.1

Q: Under p70 (NAMPT) (Homo sapiens): report Binding competition of OC(CN1c2ccccc2CCc2ccccc21)CN1c2ccccc2CCc2ccccc21 .
Result: 1.5

Q: Under p70 (NAMPT) (Homo sapiens): report Binding competition of c1ccc2c(c1)CCc1ccccc1N2 .
Result: 1.0

Q: Under p70 (NAMPT) (Homo sapiens): report Binding competition of [N-]=[N+]=NCC(F)Cn1c2ccc(Br)cc2c2cc(Br)ccc21 (centres unmarked) .
Result: 3.6

Q: Under p70 (NAMPT) (Homo sapiens): report Binding competition of N#Cc1ccc2c(c1)c1cc(Br)ccc1n2CC(=O)O .
Result: 1.3

Q: Under p70 (NAMPT) (Homo sapiens): report Binding competition of N#Cc1ccc2c(c1)c1ccccc1n2CC(O)COc1ccccc1 (centres unmarked) .
Result: 6.5

Q: Under p70 (NAMPT) (Homo sapiens): report Binding competition of O=S(=O)(CC(F)Cn1c2ccc(Br)cc2c2cc(Br)ccc21)c1cccc(O)c1 (centres unmarked) .
Result: 2.4
